Test system: working termites and soldier termites (Coptotermes formosanus)
ASSAY PROTOCOL: whole plant or invertebrate
Type: in vivo
CONDITION DETAILS: 8 ppm; after three weeks
Description: Small blocks of Japanese redpine tree (2 cm×2 cm×2 cm) were soaked for one minute into the aqueous solution prepared by the similar procedure to Example 8. After air-dried, they were kept in a constant temperature chamber at 40° C. for four weeks. Then each of the thus treated blocks was placed in a polymeric cup (10 cm diameter) containing 150 ml of sandy loam of 20% moisture content. […]
EXPERIMENTAL READOUT: Degree of xylophagous damage in the pine tree block (0-5)
The response must contain the number and no unit.

Known Degree of xylophagous damage in the pine tree block (0-5) results, listed for orientation:
>>> df
                                   molecule  experimental_value
0  O=[N+]([O-])C=C1NCCN1Cc1ccc(Cl)nc1 [I.1]                   0
1  CCOP(=S)(OCC)O/N=C(\C#N)c1ccccc1 [A, reference compound]                   5
2  O=[N+]([O-])C=C1SCCN1Cc1ccc(Cl)nc1 [I.2]                   0
3  O=[N+]([O-])N=C1NCCN1Cc1ccc(Cl)nc1 [I.3]                   0

Value of Degree of xylophagous damage in the pine tree block (0-5) reported for the molecule CCOP(=S)(OCC)Oc1nc(Cl)c(Cl)cc1Cl [B, reference compound] is 1
